- experimental-system: HLA-A*02:03
- assay-remarks: IEDB peptide-MHC binding, purified MHC/competitive/radioactivity; bounds were set here for any values at or beyond the usual limits of such assays
- measurement-conditions: source organism: Vaccinia virus WR
assay-readout: IC50 (nM)
Give bare numbers, in nM.

These solved cases illustrate the format of a correct answer.
KAKQLCYCPA :: 188
FVNFVKDMI :: 124
SLKRFTHTT :: 9.1

Kindly give each listed record's IC50.
1. LITLILSNKL
2. AAITLVVISV
3. GLYIPGTSVI
4. QMYRKFSRCT
5. ILEYLYIMRV

[out]
1: 293; 2: 246; 3: 0.19; 4: 2260; 5: 83

Kindly give each listed record's IC50.
1. NMINKLYGYA
2. IVTFINDYA
3. QLLKILDNL
4. KTPLYYLSGT
5. ILSEKRKDTI
6. ALKNSQAELT

[out]
1: 0.44; 2: 2960; 3: 319; 4: 3110; 5: 541; 6: 980

Kindly give each listed record's IC50.
1. NVISKIYTL
2. SLVYGIRCV
3. DINESMSQMV
4. MLLNVQTLI
5. KLFTHDIML
6. EIRGVLPEET

[out]
1. 97
2. 3.8
3. 488
4. 0.25
5. 3
6. 4870

* * *

- experimental-system: HLA-A*02:01
- assay-remarks: IEDB peptide-MHC binding, purified MHC/competitive/radioactivity; bounds were set here for any values at or beyond the usual limits of such assays
- measurement-conditions: source organism: Vaccinia virus WR
assay-readout: IC50 (nM)
Give bare numbers, in nM.

FLPQIGGEA :: 1360
ILISLINSLV :: 83
FTTTSEVVDM :: 1890

Kindly give each listed record's IC50.
1. PMLYQLLEA
2. AASSTHRKV
3. LLSQYLSRV
4. LMSTLLIYL
5. TIGNQLYLTV
6. VIDRLPSET
7. RTVIHLEWL

[out]
1. 1070
2. 2640
3. 1
4. 0.13
5. 18
6. 3500
7. 514

Kindly give each listed record's IC50.
1. YVEHDPRLV
2. AISYCRAFI
3. RISMVISLL

[out]
4740
169
1460

Kindly give each listed record's IC50.
1. LLSAINFKI
2. FVIVIYIFTV
3. YLYETYHLI

[out]
0.54
122
2.4

Kindly give each listed record's IC50.
1. DMTKVDVEL
2. KLYGYASLTT

[out]
[3990, 19]

* * *

- experimental-system: HLA-A*02:02
- assay-remarks: IEDB peptide-MHC binding, purified MHC/competitive/radioactivity; bounds were set here for any values at or beyond the usual limits of such assays
- measurement-conditions: source organism: Vaccinia virus WR
assay-readout: IC50
A complete answer gives the number and then names the unit.

These solved cases illustrate the format of a correct answer.
SALMTLDDL :: 411 nM
TVGMSIVCIV :: 528 nM

Kindly give each listed record's IC50.
1. MMQNDYGGM
2. VIIMAINVFT

[out]
1: 1080 nM; 2: 320 nM

Kindly give each listed record's IC50.
1. ELAYYNSCML
2. SMMVILPDKI
3. NMKPNFWSRI
4. ALWDSNFFT
5. YTISSESLV
6. TMKAIEKDRL
7. FLDWIKDIMT
8. VTSPLTGNNT

[out]
1. 1870 nM
2. 28 nM
3. 1680 nM
4. 1060 nM
5. 522 nM
6. 171 nM
7. 424 nM
8. 1450 nM
